Please respond with reported Cmax for every item in the list.
assay: Cmax in BALB/c mouse at 100 mg/kg, ip; assay type: ADME, organism-based; conditions: in vivo
Numbers only, in ng/mL.

>>> print(df.to_string())
                           molecular_string  measured_result
0  O=C(O)c1cn(C2CC2)c2cc(N3CCNCC3)c(F)cc2c1=O            20000

Here is the next item to consider.
Lookup: Given C[C@H]1c2cccc(O)c2C(=O)C2=C(O)[C@]3(O)C(=O)C(C(N)=O)=C(O)[C@@H](N(C)C)[C@@H]3[C@@H](O)[C@@H]21.O , state its recorded Cmax.
Found: 12000

====

test: Trough level in BALB/c mouse at 50 mg/kg, ip after 6 hrs; assay type: ADME, organism-based; settings: in vivo
Please respond with reported concentration at 6 h for every item in the list.
One number for each entry, in ng/mL.

>>> print(df.to_string())
                           molecular_string  unit_tag  measured_result
0  C[C@H]1c2cccc(O)c2C(=O)C2=C(O)[C@]3(O)C(=O)C(C(N)=O)=C(O)[C@@H](N(C)C)[C@@H]3[C@@H](O)[C@@H]21.O     ng/mL             1670

Here is the next item to consider.
Lookup: Given O=C(O)c1cn(C2CC2)c2cc(N3CCNCC3)c(F)cc2c1=O , state its recorded concentration at 6 h.
Found: 1830

====

experiment: Cmax in BALB/c mouse at 50 mg/kg, ip; assay type: ADME, organism-based; settings: in vivo
parameter: Cmax (ng/mL)
One number for each entry, in ng/mL.

>>> print(df.to_string())
                                   compound  parameter  measured_result
0  O=C(O)c1cn(C2CC2)c2cc(N3CCNCC3)c(F)cc2c1=O [CIPROFLOXACIN]       Cmax            10700

Lookup: Given C[C@H]1c2cccc(O)c2C(=O)C2=C(O)[C@]3(O)C(=O)C(C(N)=O)=C(O)[C@@H](N(C)C)[C@@H]3[C@@H](O)[C@@H]21.O [DOXYCYCLINE] , state its recorded Cmax.
Found: 6700

====

assay: AUC (0-6h) in BALB/c mouse at 50 mg/kg, ip; format: ADME, organism-based; conditions: plasma
Please respond with reported AUC(0-t) at 6 h for every item in the list.
One number for each entry, in ng·h/mL.

// each molecule listed below needs its AUC(0-t) at 6 h
1. O=C(O)c1cn(C2CC2)c2cc(N3CCNCC3)c(F)cc2c1=O [CIPROFLOXACIN]
2. C[C@H]1c2cccc(O)c2C(=O)C2=C(O)[C@]3(O)C(=O)C(C(N)=O)=C(O)[C@@H](N(C)C)[C@@H]3[C@@H](O)[C@@H]21.O [DOXYCYCLINE]

Found:
1. 14100
2. 23400
